protein stability index reference
B1: PTPRD (parent)
chain: FICQATGDPRPKIVWNKKGKKVSN

Variants of: B1
PROTOCOL_TEXT: protein stability index of a GFP-peptide fusion (GPS, HEK-293T) (PSI 1-6); higher = more stable;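 also: lentivirally expressed fusions sorted by FACS into six bins by GFP to DsRed ratio, PSI derived from sequencing read proportions per bin multiplied by bin number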
CONDITION_NOTES: c terminus: a fixed tail appended
Just the number.

# SEQ, protein stability index
records = [
    ("FICQAEGDPRPKIVWNKKGKKVSN [T6E]", 2.05),
    ("FIQQATGDPRPKIVWNKKGKKVSN [C3Q]", 2.05),
    ("FICQATGDPRPKIVWNKKGKKVSS [N24S]", 2.03),
    ("FICQATGDPRPKIVWNYKGKKVSN [K17Y]", 1.68),
]

Shift focus to the following entry.
I would be grateful if you could share the reported protein stability index for FICQATGDPLPKIVWNKKGKKVSN [R10L] .
1.83
